# system_under_test: Human recombinant PDE2A (hPDE2A) (Homo sapiens, UniProt O00408)
# Construct: His tag (inferred from metal chelate purification); made in house; host or cells: Sf9 insect cells (baculovirus)
# Sequence (O00408 whole entry): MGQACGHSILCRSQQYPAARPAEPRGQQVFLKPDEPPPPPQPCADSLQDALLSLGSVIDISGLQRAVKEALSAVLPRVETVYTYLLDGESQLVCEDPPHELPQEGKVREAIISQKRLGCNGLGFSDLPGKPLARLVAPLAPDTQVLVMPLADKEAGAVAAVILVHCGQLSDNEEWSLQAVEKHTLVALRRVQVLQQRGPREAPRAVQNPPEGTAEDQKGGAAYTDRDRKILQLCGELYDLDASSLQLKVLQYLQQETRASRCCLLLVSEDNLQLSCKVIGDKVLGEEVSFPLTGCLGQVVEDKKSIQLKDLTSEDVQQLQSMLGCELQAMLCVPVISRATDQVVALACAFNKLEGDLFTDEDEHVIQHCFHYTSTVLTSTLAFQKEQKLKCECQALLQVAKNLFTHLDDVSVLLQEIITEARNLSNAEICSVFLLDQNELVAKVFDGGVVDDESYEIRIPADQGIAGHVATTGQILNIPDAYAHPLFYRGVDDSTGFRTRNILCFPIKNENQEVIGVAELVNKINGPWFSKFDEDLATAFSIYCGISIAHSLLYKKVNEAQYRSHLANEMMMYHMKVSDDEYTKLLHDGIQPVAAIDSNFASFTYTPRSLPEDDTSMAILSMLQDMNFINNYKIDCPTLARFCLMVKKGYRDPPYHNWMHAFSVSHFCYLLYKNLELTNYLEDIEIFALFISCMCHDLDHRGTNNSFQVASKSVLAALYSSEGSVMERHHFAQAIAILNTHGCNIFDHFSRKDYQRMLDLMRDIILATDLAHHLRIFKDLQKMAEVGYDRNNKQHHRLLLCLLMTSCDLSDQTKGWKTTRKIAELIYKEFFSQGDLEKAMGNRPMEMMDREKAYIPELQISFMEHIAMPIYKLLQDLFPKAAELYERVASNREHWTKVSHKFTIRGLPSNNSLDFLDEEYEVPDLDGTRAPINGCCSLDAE
# experiment_description: In vitro assay PDE2A (SPA, 3H-cGMP hydrolysis)
# Assay type: biochemical
# condition_set: human recombinant PDE2A, 10 μM cGMP substrate; read-out: hPDE2A pIC50 (converted)
assay_metric: IC50 (nM)

(A) C[C@@H]1CCN(C(=O)c2cc(Cl)nc(Cl)c2F)C[C@H]1c1cc(C(F)F)nc2ncnn12
(B) C[C@@H]1CCN(C(=O)c2cc(C#N)ccn2)C[C@H]1c1cc(C(F)F)nc2ncnn12
(C) Cc1cccnc1C(=O)N1CC[C@@H](C)[C@H](c2cc(C(F)F)nc3ncnn23)C1
(D) Cc1cc([C@@H]2CN(C(=O)c3oc4ccccc4c3C)CC[C@H]2C)n2ncnc2n1
(E) C[C@@H]1CCN(C(=O)c2ccc(Cl)c(C(F)(F)F)c2)C[C@H]1c1cc(C(F)F)nc2ncnn12
## Task Highest to lowest IC50: rank the entries shown above. # the answer lists labels in the order requested
## Result C, B, E, A, D

(I) Cc1cnc(Cl)cc1C(=O)N1CC[C@@H](C)[C@H](c2cc(C(F)F)nc3ncnn23)C1
(II) COc1ccc(C(=O)N2CC[C@@H](C)[C@H](c3cc(C(F)F)nc4ncnn34)C2)cc1OC(F)F
## Task Larger number for IC50: I , or II ? Write the label of whichever entry you select.
## Result II
